TARGET_DESC: cynomolgus PAI-1 (cynomolgus, UniProt P05121 24-402 (human entry), limits assumed)
TEST_SUMMARY: cell-based or functional assay
IC50 ratio cyno/human for assorted binders

{"BINDER": "Antibody 03, scFv (scFv, V domains shown) VH: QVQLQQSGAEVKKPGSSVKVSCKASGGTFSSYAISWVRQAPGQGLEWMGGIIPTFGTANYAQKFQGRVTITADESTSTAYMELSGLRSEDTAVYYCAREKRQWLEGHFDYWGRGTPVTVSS VL: DIQMTQSPSFLSASIGDRVTITCRASEGIYRSLAWYQQKPGKAPKLLIYKASSLASGAPSRFSGSGSGTDFTLTISGLQPDDFATYYCQQYSNYPLTFGGGTKLEIK", "IC50 ratio cyno/human": 0.1}
{"BINDER": "Antibody 18, scFv (scFv, V domains shown) VH: QVQLQQSGAEVKKPGSSVKVSCKASGGTFSSYAISWVRQAPGQGLEWMGGIIPTFGTANYAQKLQGRVTITADESTSTAYMELSGLRSEDTAVYYCAREKRQWLEGHFDYWGRGTPVTVSS VL: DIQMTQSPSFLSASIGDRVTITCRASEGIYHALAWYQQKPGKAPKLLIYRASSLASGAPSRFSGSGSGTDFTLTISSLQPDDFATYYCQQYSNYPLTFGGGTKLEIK", "IC50 ratio cyno/human": 0.4}
{"BINDER": "Antibody 19, scFv (scFv, V domains shown) VH: QVQLQQSGAEVKKPGSSVKVSCKASGGTFSSYAISWVRQAPGQGLEWMGGIIPIFDTANYAQKFQGRVTITADESTSTAYMELSGLRSEDTAVYYCARERRQWLEGHFDYWGRGTPVTVSS VL: DIRMTQSPSFLSASIGDRVTITCRASEGIYHELAWYQQKPGKAPKLLIYRASSLASGAPSRFSGSGSGTEFTLTISSLQPDDFATYYCQQYSNYPLTFGGGTKLEIK", "IC50 ratio cyno/human": 0.4}

Source of measurements: patent US20120114652A1
